- subjectOfTest: human vasopressin V1b receptor (Homo sapiens)
- Sequence (P47901 whole entry): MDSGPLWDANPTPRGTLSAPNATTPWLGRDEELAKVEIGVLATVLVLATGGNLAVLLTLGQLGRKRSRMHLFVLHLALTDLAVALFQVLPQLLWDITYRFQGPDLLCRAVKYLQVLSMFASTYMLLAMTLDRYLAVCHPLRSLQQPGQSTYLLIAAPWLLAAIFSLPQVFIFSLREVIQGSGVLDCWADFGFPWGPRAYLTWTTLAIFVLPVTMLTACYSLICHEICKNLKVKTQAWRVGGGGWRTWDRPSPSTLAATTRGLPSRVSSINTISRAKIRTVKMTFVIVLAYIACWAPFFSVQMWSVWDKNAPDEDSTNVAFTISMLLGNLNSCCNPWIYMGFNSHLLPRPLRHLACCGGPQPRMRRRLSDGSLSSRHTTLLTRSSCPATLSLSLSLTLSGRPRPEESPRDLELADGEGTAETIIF
pKi: −log10 of the molar value.
property: pKi

Kindly note: human vasopressin V1b receptor (Homo sapiens), CCOc1ncccc1C1(NC(=O)N2CCN(C3CCN(C4COC4)CC3)CC2)C(=O)N(S(=O)(=O)c2ccc(OC)cc2)c2ccc(C#N)cc21 (stereo not shown) [Example 3] , pKi value reported: 8.00 to 9.00

Kindly note: human vasopressin V1b receptor (Homo sapiens), CCOc1ncccc1[C@]1(NC(=O)N2CCN(C3CCN(C4COC4)CC3)CC2)C(=O)N(S(=O)(=O)c2cc(F)c(OC)cc2OC)c2ccc(C#N)cc21 [Example 8] , pKi value reported: 8.00 to 9.00

Kindly note: human vasopressin V1b receptor (Homo sapiens), CCOc1ncccc1[C@]1(NC(=O)N2CCN(C3CCN(C4COC4)CC3)CC2)C(=O)N(S(=O)(=O)c2ccc(OC)cc2OC)c2ccc(Cl)cc21 [Example 10] , pKi value reported: > 9.00

Kindly note: human vasopressin V1b receptor (Homo sapiens), CCOc1ncccc1[C@]1(NC(=O)N2CCN(C3CCN(C4COC4)CC3)CC2)C(=O)N(S(=O)(=O)c2ccc(OC)cc2OC)c2cc(F)c(F)cc21 [Example 9] , pKi value reported: 8.00 to 9.00
